Reported FPF values for a set of compounds
Assay: Aerosol performance by Next Generation Impactor (Example 4)
Assay type: physicochemical
Conditions: Sample B (coarse lactose batch B); mean
Where a name gives a salt, the structure may show the parent alone.
Use % as the unit, but write only the number.

Would you please look over these solved cases?
CCC(=O)OCC(=O)[C@@]1(OC(=O)CC)[C@@H](C)C[C@H]2[C@@H]3CCC4=CC(=O)C=C[C@]4(C)[C@@]3(Cl)[C@@H](O)C[C@@]21C :: 33.4
COc1ccc(CC(C)NCC(O)c2ccc(O)c(NC=O)c2)cc1 (stereo not drawn) [FF, formoterol fumarate dihydrate] :: 36.8

From here, focus on the item given below.
Problem: Entry C[N+]1(C)CCC(OC(=O)C(O)(c2ccccc2)C2CCCC2)C1 (stereo not drawn) [GB, glycopyrronium bromide] : reported FPF = ?
Result: 30.9

Values were extracted from patent US20250050042A1.
